assay_target: acyl coenzyme A: cholesterol O-acyltransferase (ACAT) (Oryctolagus cuniculus)
Construct: The microsomal fraction was isolated by centrifugation and stored frozen
Sequence (G1SFD9 1-524): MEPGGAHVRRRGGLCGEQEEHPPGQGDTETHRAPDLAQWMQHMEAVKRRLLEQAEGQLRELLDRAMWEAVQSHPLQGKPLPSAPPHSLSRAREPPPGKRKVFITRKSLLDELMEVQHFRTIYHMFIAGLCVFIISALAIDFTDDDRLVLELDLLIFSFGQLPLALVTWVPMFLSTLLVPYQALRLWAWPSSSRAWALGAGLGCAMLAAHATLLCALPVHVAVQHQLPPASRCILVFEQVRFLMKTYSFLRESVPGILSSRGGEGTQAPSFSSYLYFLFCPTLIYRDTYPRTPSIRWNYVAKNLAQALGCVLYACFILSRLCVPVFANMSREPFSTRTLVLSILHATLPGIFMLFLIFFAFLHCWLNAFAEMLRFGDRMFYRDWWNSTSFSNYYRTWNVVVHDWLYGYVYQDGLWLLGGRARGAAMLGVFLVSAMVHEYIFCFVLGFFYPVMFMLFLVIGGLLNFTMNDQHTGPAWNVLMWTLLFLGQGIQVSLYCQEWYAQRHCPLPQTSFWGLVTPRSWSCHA
measurement_protocol: Inhibition of ACAT catalyzed formation of cholesterol oleate from endogenous cholesterol and exogenous 14C oleate
condition_set: concentration at which 50% of the cholesterol esterification reaction is inhibited; rabbit jejunum mucosa microsomal fraction
quantity: pIC50
Value format note: pIC50 is -log10 of concentration (mol/L); just state the number.

Some compounds with recorded pIC50:
- compound: "CCCCCCCC/C=C\\CCCCCCCC(=O)OCCNC(=O)CCNC(=O)C(O)C(C)(C)CO (stereo not shown) [Example 17]"
  pIC50: 4.11
- compound: "CCCCCCCC/C=C\\CCCCCCCC(=O)NCCNC(=O)CCNC(=O)C(O)C(C)(C)CO (stereo not shown) [Example 26]"
  pIC50: 5.48

Prompt line: Endpoint output: pIC50 of CCCCCCCC/C=C\CCCCCCCC(O)CCCNC(=O)CCNC(C)=O (stereo not shown) [Example 33] . Value?
Response line: 3.97

Prompt line: Endpoint output: pIC50 of CCCCCCCC/C=C\CCCCCCCC(=O)CCCNC(=O)CCNC(=O)C(O)C(C)(C)CO (stereo not shown) [Example 37] . Value?
Response line: 4.00

Prompt line: Endpoint output: pIC50 of CCCCCCCC/C=C\CCCCCCCC(O)CCCNC(C)=O (stereo not shown) [Example 31] . Value?
Response line: 4.33
